Recorded ratio of amounts bound vs CE115HA000 by entry
Target: T1, CD3ε homodimer protein (human, UniProt P07766 23-126, limits assumed, sulfo-tag or biotin label in some ECL assays)
T1 construct: also called human CD3ε homodimer protein; CD3 (CD3ε)
T1 sequence (P07766 23-126 limits assumed): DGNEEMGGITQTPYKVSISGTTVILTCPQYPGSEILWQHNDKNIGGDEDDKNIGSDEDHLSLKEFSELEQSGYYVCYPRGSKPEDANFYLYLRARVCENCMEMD
Assay: SPR, CD3ε homodimer on chip;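 note: biacore SPR with antibody variants flowed as analyte over amine-coupled CD3ε homodimer on a CM chip, bound amount of each single-residue H chain variant over that of parent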
Keep it simple and answer with nothing but the number.

Binder	ratio of amounts bound vs CE115HA000
CE115HA000 A52aV (antibody, name in Kabat numbering, V domains shown) VH: QVQLVESGGGVVQPGRSLRLSCAASGFTFSNAWMHWVRQAPGKGLEWVAQIKVKSNNYATYYAESVKGRFTISRDDSKNSLYLQMNSLKTEDTAVYYCRYVHYGAYYGVDAWGQGTTVTVSS VL: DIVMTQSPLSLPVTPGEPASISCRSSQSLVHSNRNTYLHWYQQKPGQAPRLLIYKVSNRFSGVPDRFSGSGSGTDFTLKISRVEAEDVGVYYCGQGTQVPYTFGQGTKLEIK	0.52
CE115HA000 N54G (antibody, name in Kabat numbering, V domains shown) VH: QVQLVESGGGVVQPGRSLRLSCAASGFTFSNAWMHWVRQAPGKGLEWVAQIKAKSNGYATYYAESVKGRFTISRDDSKNSLYLQMNSLKTEDTAVYYCRYVHYGAYYGVDAWGQGTTVTVSS VL: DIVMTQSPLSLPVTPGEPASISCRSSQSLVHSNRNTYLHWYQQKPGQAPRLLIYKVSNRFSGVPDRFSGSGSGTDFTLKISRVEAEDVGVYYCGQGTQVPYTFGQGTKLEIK	0.98
CE115HA000 H35M (antibody, name in Kabat numbering, V domains shown) VH: QVQLVESGGGVVQPGRSLRLSCAASGFTFSNAWMMWVRQAPGKGLEWVAQIKAKSNNYATYYAESVKGRFTISRDDSKNSLYLQMNSLKTEDTAVYYCRYVHYGAYYGVDAWGQGTTVTVSS VL: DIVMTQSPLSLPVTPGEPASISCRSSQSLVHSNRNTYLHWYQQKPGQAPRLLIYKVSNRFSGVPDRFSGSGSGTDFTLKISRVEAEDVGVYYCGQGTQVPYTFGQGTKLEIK	0.29
CE115HA000 D101T (antibody, name in Kabat numbering, V domains shown) VH: QVQLVESGGGVVQPGRSLRLSCAASGFTFSNAWMHWVRQAPGKGLEWVAQIKAKSNNYATYYAESVKGRFTISRDDSKNSLYLQMNSLKTEDTAVYYCRYVHYGAYYGVTAWGQGTTVTVSS VL: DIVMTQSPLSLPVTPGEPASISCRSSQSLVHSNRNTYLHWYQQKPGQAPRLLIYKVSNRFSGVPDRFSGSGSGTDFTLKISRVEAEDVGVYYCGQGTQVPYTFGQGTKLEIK	0.79

get_value(item= CE115HA000 N54Q (antibody, name in Kabat numbering, V domains shown) VH: QVQLVESGGGVVQPGRSLRLSCAASGFTFSNAWMHWVRQAPGKGLEWVAQIKAKSNQYATYYAESVKGRFTISRDDSKNSLYLQMNSLKTEDTAVYYCRYVHYGAYYGVDAWGQGTTVTVSS VL: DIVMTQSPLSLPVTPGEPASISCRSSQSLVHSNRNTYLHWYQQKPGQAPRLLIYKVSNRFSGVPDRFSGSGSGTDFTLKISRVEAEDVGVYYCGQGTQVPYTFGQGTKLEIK , readout=ratio of amounts bound vs CE115HA000) returns 0.84

Where do the numbers come from? From patent US20220040297A1.
